Values compiled from ChEMBL document CHEMBL3885881.

Species: Rattus norvegicus
PROTOCOL_TEXT: DrugMatrix - Regimen: Daily Repeat
Type: toxicity, organism-based, Sprague-Dawley
Parameters: regimen Daily Repeat, gender Male, age 6-8 weeks
EXPERIMENTAL_PARAMETERS: in vivo, po, 0 mg/kg, 120 h, tissue Plasma, route oral GAVAGE, dose level Control, time 5 day, vehicle .5 % CMC
OUTCOME_MEASURE: CREATINE PHOSPHOKINASE (u/L)
# output: bare number, implied unit u/L

Here's what some known entries look like.
molecule="CN1C(=O)COc2c(C(=O)NC3CN4CCC3CC4)cc(Cl)cc21 (stereo not given) [AZASETRON]" reading=312
molecule="N=C(N)NC(=O)c1nc(Cl)c(N)nc1N [AMILORIDE]" reading=120.33
molecule="Cc1onc(-c2ccccc2)c1-c1ccc(S(N)(=O)=O)cc1 [VALDECOXIB]" reading=148.33

Recorded CREATINE PHOSPHOKINASE for CNC(=C[N+](=O)[O-])NCCSCc1ccc(CN(C)C)o1 [RANITIDINE] , please? 273.5

Same question, C[C@](O)(CS(=O)(=O)c1ccc(F)cc1)C(=O)Nc1ccc(C#N)c(C(F)(F)F)c1 [(R)-BICALUTAMIDE] this time 417.5

###

Organism: Rattus norvegicus
PROTOCOL_TEXT: DrugMatrix - Regimen: Daily Repeat
Assay type: toxicity, organism-based, Sprague-Dawley
Parameters: regimen Daily Repeat, gender Male, age 6-8 weeks
EXPERIMENTAL_PARAMETERS: in vivo, po, 0 mg/kg, 72 h, tissue Plasma, route oral GAVAGE, dose level Control, time 3 day, vehicle 100 % WATER
Quick reference for ASPARTATE AMINOTRANSFERASE among some compounds
# output: bare number, implied unit u/L

Here's what some known entries look like.
compound="C[C@@H]1C[C@@H]([C@H](O)CC2CC(=O)NC(=O)C2)C(=O)[C@@H](C)C1 [CYCLOHEXIMIDE]" outcome_measure="ASPARTATE AMINOTRANSFERASE" reading=89.17
compound="CC(C)C[C@H](NC(=O)[C@@H](O)[C@H](N)Cc1ccccc1)C(=O)O [UBENIMEX]" outcome_measure="ASPARTATE AMINOTRANSFERASE" reading=82.17
compound="COc1cc2ncnc(Nc3ccc(F)c(Cl)c3)c2cc1OCCCN1CCOCC1 [GEFITINIB]" outcome_measure="ASPARTATE AMINOTRANSFERASE" reading=86.17
compound="Cc1ncc([N+](=O)[O-])n1CCO [METRONIDAZOLE]" outcome_measure="ASPARTATE AMINOTRANSFERASE" reading=81.83
compound="C[N+](C)(C)CCO.[Cl-] [CHOLINE CHLORIDE]" outcome_measure="ASPARTATE AMINOTRANSFERASE" reading=118
compound="Nc1ccn([C@@H]2CS[C@H](CO)O2)c(=O)n1 [LAMIVUDINE]" outcome_measure="ASPARTATE AMINOTRANSFERASE" reading=87.5

Next, consider the following compound.
Recorded ASPARTATE AMINOTRANSFERASE for COC(=O)C1=C(C)NC(C)=C(C(=O)OCC(C)C)C1c1ccccc1[N+](=O)[O-] (stereo not given) [NISOLDIPINE] , please? 82.17

###

Quick reference for LYMPHOCYTE among some molecules
Species: Rattus norvegicus
PROTOCOL_TEXT: DrugMatrix - Regimen: Daily Repeat
Type: toxicity, organism-based, Sprague-Dawley
Parameters: regimen Daily Repeat, gender Male, age 6-8 weeks
EXPERIMENTAL_PARAMETERS: in vivo, iv, 0 mg/kg, 120 h, tissue Blood, dose level Control, time 5 day, vehicle 100 % SALINE
# output: bare number, implied unit %

molecule="CC[C@]1(O)C[C@@H]2CN(CCc3c([nH]c4ccccc34)[C@@](C(=O)OC)(c3cc4c(cc3OC)N(C)[C@H]3[C@@](O)(C(=O)OC)[C@H](OC(C)=O)[C@]5(CC)C=CCN6CC[C@]43[C@@H]65)C2)C1 [VINBLASTINE]" reading=93.17

Recorded LYMPHOCYTE for CCc1c2c(nc3ccc(OC(=O)N4CCC(N5CCCCC5)CC4)cc13)-c1cc3c(c(=O)n1C2)COC(=O)[C@]3(O)CC [IRINOTECAN] , please? 91.83

Same question, CCC1=C[C@@H]2CN(C1)Cc1c([nH]c3ccccc13)[C@@](C(=O)OC)(c1cc3c(cc1OC)N(C)[C@H]1[C@@](O)(C(=O)OC)[C@H](OC(C)=O)[C@]4(CC)C=CCN5CC[C@]31[C@@H]54)C2 [VINORELBINE] this time 88.83

Same question, COc1cccc2c1C(=O)c1c(O)c3c(c(O)c1C2=O)C[C@@](O)(C(=O)CO)C[C@@H]3O[C@H]1C[C@H](N)[C@H](O)[C@H](C)O1 [DOXORUBICIN] this time 89.17

Same question, COc1cccc2c1C(=O)c1c(O)c3c(c(O)c1C2=O)C[C@@](O)(C(=O)CO)C[C@@H]3O[C@H]1C[C@H](N)[C@@H](O)[C@H](C)O1 [EPIRUBICIN] this time 91.83

Same question, "CC(=O)N[C@@H]1[C@H](Oc2c3cc4cc2Oc2ccc(cc2Cl)[C@@H](O[C@@H]2O[C@@H](CO)[C@@H](O)[C@H](O)[C@@H]2NC(C)=O)[C@@H]2NC(=O)[C@H](NC(=O)[C@@H]4NC(=O)[C@H]4NC(=O)[C@@H](Cc5ccc(c(Cl)c5)O3)NC(=O)[C@H](N)c3ccc(O)c(c3)Oc3cc(O)cc4c3)c3ccc(O)c(c3)-c3c(O[C@H]4O[C@H](CO)[C@@H](O)[C@@H](O)[C@@H]4O)cc(O)cc3[C@@H](C(=O)O)NC2=O)O[C@@H](CO)[C@@H](O)[C@@H]1O" this time 85.17

###

Species on record: Rattus norvegicus
PROTOCOL_TEXT: DrugMatrix - Regimen: Daily Repeat
Type: toxicity, organism-based, Sprague-Dawley
Parameters: regimen Daily Repeat, gender Male, age 6-8 weeks
EXPERIMENTAL_PARAMETERS: in vivo, ip, 40 mg/kg, 120 h, tissue Blood, route intraperitoneal, dose level High, time 5 day, vehicle 100 % SALINE
OUTCOME_MEASURE: ABSOLUTE SEGMENTED NEUTROPHIL (cells/µL)
# output: bare number, implied unit cells/µL

Recorded ABSOLUTE SEGMENTED NEUTROPHIL for "CCN[C@@H]1C[C@H](N)[C@@H](O[C@H]2OC(CN)=CC[C@H]2N)[C@H](O)[C@H]1O[C@H]1OC[C@](C)(O)[C@H](NC)[C@H]1O" , please? 2070

###

Quick reference for TOTAL BILIRUBIN among some molecules
Species on record: Rattus norvegicus
PROTOCOL_TEXT: DrugMatrix - Regimen: Daily Repeat
Type: toxicity, organism-based, Sprague-Dawley
Parameters: regimen Daily Repeat, gender Male, age 6-8 weeks
EXPERIMENTAL_PARAMETERS: in vivo, iv, 0 mg/kg, 120 h, tissue Plasma, dose level Control, time 5 day, vehicle 100 % SALINE
# output: bare number, implied unit mg/dL

Here's what some known entries look like.
molecule=CC(=O)N[C@@H]1[C@H](Oc2c3cc4cc2Oc2ccc(cc2Cl)[C@@H](O[C@@H]2O[C@@H](CO)[C@@H](O)[C@H](O)[C@@H]2NC(C)=O)[C@@H]2NC(=O)[C@H](NC(=O)[C@@H]4NC(=O)[C@H]4NC(=O)[C@@H](Cc5ccc(c(Cl)c5)O3)NC(=O)[C@H](N)c3ccc(O)c(c3)Oc3cc(O)cc4c3)c3ccc(O)c(c3)-c3c(O[C@H]4O[C@H](CO)[C@@H](O)[C@@H](O)[C@@H]4O)cc(O)cc3[C@@H](C(=O)O)NC2=O)O[C@@H](CO)[C@@H](O)[C@@H]1O reading=0.17
molecule="COc1cccc2c1C(=O)c1c(O)c3c(c(O)c1C2=O)C[C@@](O)(C(=O)CO)C[C@@H]3O[C@H]1C[C@H](N)[C@@H](O)[C@H](C)O1 [EPIRUBICIN]" reading=0.15
molecule=COc1cccc2c1C(=O)c1c(O)c3c(c(O)c1C2=O)C[C@@](O)(C(=O)CO)C[C@@H]3O[C@H]1C[C@H](N)[C@H](O)[C@H](C)O1 reading=0.2
molecule=CC[C@]1(O)C[C@@H]2CN(CCc3c([nH]c4ccccc34)[C@@](C(=O)OC)(c3cc4c(cc3OC)N(C)[C@H]3[C@@](O)(C(=O)OC)[C@H](OC(C)=O)[C@]5(CC)C=CCN6CC[C@]43[C@@H]65)C2)C1 reading=0.22
molecule=CCC1=C[C@@H]2CN(C1)Cc1c([nH]c3ccccc13)[C@@](C(=O)OC)(c1cc3c(cc1OC)N(C)[C@H]1[C@@](O)(C(=O)OC)[C@H](OC(C)=O)[C@]4(CC)C=CCN5CC[C@]31[C@@H]54)C2 reading=0.2

Next, consider the following molecule.
Recorded TOTAL BILIRUBIN for "CCc1c2c(nc3ccc(OC(=O)N4CCC(N5CCCCC5)CC4)cc13)-c1cc3c(c(=O)n1C2)COC(=O)[C@]3(O)CC" , please? 0.15
